Form: system (Alpha-1A adrenergic receptor (Bos taurus)), quantity (Ki), values below.
Write the answer as a number in nM, unit excluded.

Solved entries (count: 6):
>  <SMILES_STR>
Fc1cccnc1N1CCNCC1

>  <MEASUREMENT_UNIT>
nM

>  <Ki>
2500

$$$$
>  <SMILES_STR>
CN1CCN(c2ncccc2Cl)CC1

>  <MEASUREMENT_UNIT>
nM

>  <Ki>
215

$$$$
>  <SMILES_STR>
Clc1cnc(N2CCNCC2)c(Cl)c1

>  <MEASUREMENT_UNIT>
nM

>  <Ki>
800

$$$$
>  <SMILES_STR>
Clc1cccc(N2CCNCC2)n1

>  <MEASUREMENT_UNIT>
nM

>  <Ki>
375

$$$$
>  <SMILES_STR>
FC(F)(F)c1cccnc1N1CCNCC1

>  <MEASUREMENT_UNIT>
nM

>  <Ki>
2850

$$$$
>  <SMILES_STR>
Ic1cccnc1N1CCNCC1

>  <MEASUREMENT_UNIT>
nM

>  <Ki>
1600

$$$$

Consider the additional compound presented here.
In: Identify measured Ki associated with Clc1cnccc1N1CCNCC1
Out: 6800
